# protein stability index listing for each entry below
Tested on: Saccharomyces cerevisiae
Test: protein stability index of tFT-peptide fusion in wild type (PSI (0-1 scale)); higher = more stable (slower turnover)
Settings: genetic background: wild type
Give the figure only, with no unit attached.

Some sequences with recorded protein stability index:
Look up and report protein stability index, with Saccharomyces cerevisiae as system, for ARWRVGLWRGASL
0.719

Write down measured protein stability index (Saccharomyces cerevisiae) for this sequence. PDKRNHLIKLSN
0.486

State protein stability index on Saccharomyces cerevisiae. Entry: LVCYLSCVACIN
0.0123

Quote protein stability index with test system Saccharomyces cerevisiae for RLIQPLHVQFLN;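 note: PSI derived as read-weighted mean over the 8 sorting bins, only variants exceeding 10 total reads kept, mCherry placed adjacent to the peptide and sfGFP distal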
0.054

State measured protein stability index of the sequence CLFSLPILLFFR with Saccharomyces cerevisiae.
0.0583

// below: protein stability index requested for another sequence
Fill in: protein stability index on Saccharomyces cerevisiae, entry AQWRVGLWRGAS
0.499
